Target: VAV1 (Homo sapiens, UniProt P15498+Q96SW2)
Construct: A heterozygous VAV1 C-terminal HiBiT knock-in pool was generated at Monte Rosa Therapeutics from a clonal Jurkat cell; endogenous in cells; host or cells: Jurkat clone stably expressing LgBiT, homozygous GSPT1-G575N; heterozygous VAV1-HiBiT knock-in pool
Assay: VAV1 degradation activity, VAV1-HiBiT knock-in Jurkat luminescence assay (Example A, Table 1)
Type: cell-based
Settings: VAV1-HiBiT knock-in Jurkat cells, luminescence read at 6 and 24 hours; read-out: VAV1 DC50
Method: Cells were plated at 10,000 cells per well using Multiflo (BioTek) or Multi Drop Combi (Thermo Fisher) in 384-well white solid bottom plates (Corning, 3570BC) in 25 ul volume in RPMI 1640 media (Thermo Fischer, 22400105) containing 10% FBS (Corning, 35-075-CV), 1% Penicillin/Streptomycin (ThermoFisher Scientific, 15140-122), and 1% Endurazine (Nano-Glo Endurazine Live Cell Substrate (Promega, N2571)). Cells were incubated for ˜16 hours at 37° C., 5% CO2. […]
# maps each entry to its log10(DC50)
A difference of one corresponds to tenfold DC50; all values are log10 with DC50 in nM.

O=C1CCC(c2cccc(-c3ccc(Cn4ccc(C(F)(F)F)cc4=O)cc3)c2Cl)C(=O)N1 (centres unmarked) [Compound 171]: 1.97
O=C1CCC(c2cccc(-c3ccc(N4C(=O)Cc5ccccc54)cc3)c2Cl)C(=O)N1 (centres unmarked) [Compound 468]: 1.39
O=C1CCC(c2cccc(-c3ccc(-n4cccc(CC(F)(F)F)c4=O)cc3)c2Cl)C(=O)N1 (centres unmarked) [Compound 417]: 0.82
O=C1CCC(c2cccc(-c3ccc(OCc4c[nH]cn4)cc3)c2Cl)C(=O)N1 (centres unmarked) [Compound 167]: 1.59
CN1CCCN(c2ncc(-c3cccc(C4CCC(=O)NC4=O)c3Cl)cc2F)C1=O (centres unmarked) [Compound 382]: 2.22

What value of measured log10(DC50) is listed for Cn1ccc2c1C(=O)N(Cc1ccc(-c3cccc(C4CCC(=O)NC4=O)c3Cl)cc1)CC2 (centres unmarked) [Compound 272] ?
1.13

What value of measured log10(DC50) is listed for O=C1CCC(c2cccc(-c3ccc(N4CCCC(F)(F)C4=O)cc3)c2Cl)C(=O)N1 (centres unmarked) [Compound 322] ?
1.25

What value of measured log10(DC50) is listed for O=C1CCC(c2cccc(-c3ccc(Cn4ccccc4=O)cc3)c2)C(=O)N1 (centres unmarked) [Compound 239] ?
2.53
